Measured IC50, listed per entry.
Test system: IDO1 in SKOV3 cells (Homo sapiens, UniProt P14902)
Construct: SKOV3 cells (NCI, No. 0503405) which upregulate IDO1 after stimulation with IFNγ; host or cells: SKOV3 cells stimulated with IFNγ
Sequence (P14902 whole entry): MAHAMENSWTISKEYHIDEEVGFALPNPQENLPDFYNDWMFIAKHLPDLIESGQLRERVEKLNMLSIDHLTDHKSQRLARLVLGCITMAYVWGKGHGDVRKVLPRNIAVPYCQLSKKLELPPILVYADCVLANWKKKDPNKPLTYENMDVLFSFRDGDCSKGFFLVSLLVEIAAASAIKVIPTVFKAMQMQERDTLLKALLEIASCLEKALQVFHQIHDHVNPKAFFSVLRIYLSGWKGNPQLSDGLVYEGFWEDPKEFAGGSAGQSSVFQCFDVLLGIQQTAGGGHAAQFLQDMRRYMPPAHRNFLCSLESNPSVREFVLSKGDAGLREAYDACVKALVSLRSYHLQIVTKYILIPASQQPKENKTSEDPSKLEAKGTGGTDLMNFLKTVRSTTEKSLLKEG
Procedure text: Cell-based IDO inhibitory activity in IFNγ-stimulated SKOV3 cells (NFK + kynurenine by LCMS)
Cond: IFNγ 50 ng/ml, 200 uM L-tryptophan, 24 hours

Compound: Nc1ccc(-n2cc([C@H](O)c3c(C4CC4)ncc4cncn34)nn2)cc1 [Example 41]
IC50: 212 nM
--
Compound: COC(=O)Nc1ccc(-n2cc(C(O)c3c(C4CC4)ncc4cncn34)nn2)cc1 (racemic) [Example 12]
IC50: 73.9 nM
--
Compound: COc1ccc(-n2cc(C(O)c3c(C4CC4)ccc4cncn34)nn2)cc1 (racemic) [Example 4]
IC50: 42.2 nM
--
Compound: O[C@@H](c1cn(-c2ccccc2)nn1)c1c(Cl)ccc2cncn12 [Example 1a]
IC50: 193 nM
--
Compound: Cc1c(C(O)c2c(Cl)ccc3cncn23)nnn1-c1ccc(OCCC(C)(C)O)c(Cl)c1 (racemic) [Example 49]
IC50: 10.2 nM
--
Compound: CC(C)(O)COc1ccc(-n2cc([C@H](O)c3c(C4CC4)ncc4cncn34)nn2)cc1F [Example 29]
IC50: 29.9 nM
--
Compound: CCc1ccc2cncn2c1C(O)c1cn(-c2cc(F)c(OC)cc2F)nn1 (racemic) [Example 35]
IC50: 3.05 nM
--
Compound: Oc1ccc(-n2cc([C@@H](O)c3c(C4CC4)ccc4cncn34)nn2)cc1Cl [Example 7b]
IC50: 703 nM
